system: Plasmodium falciparum; experiment: Primary screen in NF54 nanoGlo assay, in single point, at 2uM, 72h; type: functional, Erythrocyte; details: timepoint 72 hour
Hit rate of the full screen: of about 150,000 compounds, about 540 (0.36%) showed an effect of 50% or more. The full list was thinned out, with strong results kept by preference.
API: label(entry) gives class 1 if the entry's % Inhibition is strictly smaller than 40%; on equality or larger values it gives class 0.

# COMPOUND, CAT
records = [
    ("CC1CN(C(=O)Cc2csc(-c3cccnc3)n2)CC(C)O1 (stereo not given)", "class 1"),
    ("c1cc(-c2nc3cc4ccccc4cc3[nH]2)nc(-c2nc3cc4ccccc4cc3[nH]2)c1", "class 0"),
    ("O=C(N[C@@H]1CN(Cc2ccccn2)CCC[C@H]1O)c1ccc(OCc2ccccc2)cc1", "class 0"),
    ("Cn1c(N)c(S(=O)(=O)N2CCN(c3ccccc3Cl)CC2)c(=O)n(C)c1=O", "class 0"),
    ("C[C@H](NC(=O)c1ccccc1)C(=O)NCC1(N2CCOCC2)CCCCC1", "class 1"),
    ("Fc1ccc(-c2nc3c(cnn3C3CCCC3)[nH]2)cc1", "class 1"),
    ("Cc1ccc(N(C)C(C)C)c(C(=O)NC[C@H]2CCC3(CCOCC3)O2)c1", "class 1"),
    ("CN1CCC(n2ncc3[nH]c(-c4ccc(C(F)(F)F)cc4)nc32)CC1", "class 0"),
    ("Cc1ccccc1S(=O)(=O)N1CCN(c2c(C)n(-c3ccccc3)c(=O)n(C)c2=O)CC1", "class 1"),
    ("O=C(N[C@@H]1CN(Cc2ccc(CO)o2)CCC[C@H]1O)c1ccc(OCc2ccccc2)cc1", "class 1"),
]

###

tested on: Plasmodium falciparum; assay: Primary screen in NF54 nanoGlo assay, in single point, at 2uM, 72h; type: functional, Erythrocyte; conditions: timepoint 72 hour
The whole screen tested about 150,000 compounds, of which about 540 (0.36%) showed an effect of 50% or more. The entries come from a sample that favours strong results as a whole.

# CHEMICAL STRING, TEST SYSTEM, Z score
measured = [
    ("CN1CC2(CCN(Cc3ccccc3OCCc3ccccc3)CC2)CC1=O", "Plasmodium falciparum", -0.02),
    ("CC(C)Oc1ccccc1[C@H]1Nc2ccccc2C(c2ccccc2)(c2ccccc2)O1", "Plasmodium falciparum", 0.21),
    ("CCS(=O)(=O)N1CCC(N2C(=O)[C@@H]3CC[C@@H](c4ccccc4)N3C2=O)CC1", "Plasmodium falciparum", 0.94),
    ("O=C(c1cccc(C(F)(F)F)c1)N1CCC(n2cnnc2C2CC2)CC1", "Plasmodium falciparum", -0.34),
    ("O=C(Nc1nc(C(=O)N2CCN(c3ncccn3)CC2)co1)c1ccsc1", "Plasmodium falciparum", 0.31),
    ("CCn1ccc(C(=O)N[C@H]2CCOC[C@@H]2OC)n1", "Plasmodium falciparum", 0.83),
    ("Cn1cncc1CC(=O)Nc1ccnc(NC(=O)OC(C)(C)C)c1", "Plasmodium falciparum", -14.52),
    ("Cc1cc(=O)c(C(=O)Nc2ccnc(NC(=O)OC(C)(C)C)c2)c[nH]1", "Plasmodium falciparum", 0.38),
    ("O=C(c1nc2ccccc2[nH]1)N1CCN(c2ccccc2F)CC1", "Plasmodium falciparum", 0.23),
    ("Cc1ccc(CC[C@H]2Nc3ccccc3C(c3ccccc3)(c3ccccc3)O2)o1", "Plasmodium falciparum", -13.4),
]

###

// values below are reported Z score
test system: Plasmodium falciparum; test: Primary screen in NF54 nanoGlo assay, in single point, at 2uM, 72h; type: functional, Erythrocyte; conditions: timepoint 72 hour
The campaign covered roughly 150,000 compounds. About 540 (0.36%) showed an effect of 50% or more. For the sample, strong results were picked, then their nearest neighbours and some compounds at random.

# CHEMICAL STRING, Z score
records = [
    ("CN(C)Cc1ccc(O)c(CCc2ccccc2)n1", -4.36),
    ("CCN1CCN(c2c(CN(C(=O)NC3CCCCC3)C(C)C)c(C)nn2-c2cccc(F)c2)CC1", 1.04),
    ("COCCc1nc(C)c([C@H](C)Nc2ccc3c(c2)CCC(=O)N3)s1", 1.74),
    ("O=C1CCCN1[C@H]1CCCN(S(=O)(=O)CC2CCCCC2)CC1", 1.12),
    ("CCOC(=O)c1ncc(Cl)c(C#N)c1Cl", 0.88),
    ("OCc1cc(CO)c(O)c(CCc2ccccc2)n1", 1.32),
]

###

A collection of molecules and their measured % Inhibition
test system: Plasmodium falciparum; assay: Primary screen in NF54 nanoGlo assay, in single point, at 2uM, 72h; format: functional, Erythrocyte; conditions: timepoint 72 hour
In all, about 150,000 compounds went through this assay and about 540 (0.36%) showed an effect of 50% or more. The entries come from a sample that favours strong results as a whole.

# MOLECULE, TEST SYSTEM, MEASUREMENT UNIT, % Inhibition
rows = [
    ("Cc1ccc(S(=O)(=O)c2c(NC(=O)c3ccco3)n(C3CCCCC3)c3nc4ccccc4nc23)cc1", "Plasmodium falciparum", "%", -11),
    ("Cc1ccc(S(=O)(=O)c2c(NS(=O)(=O)c3ccccc3)n(CCc3ccccc3)c3nc4ccccc4nc23)cc1", "Plasmodium falciparum", "%", 99),
    ("Cc1ccc(S(=O)(=O)Nc2c(S(=O)(=O)c3ccccc3)c3nc4ccccc4nc3n2CCc2ccccc2)cc1", "Plasmodium falciparum", "%", 86),
    ("CC(C)(C)c1ccc(=O)n(CC2CN(c3cnsn3)C2)n1", "Plasmodium falciparum", "%", -16),
    ("CCC1CCC(C(=O)NCC(=O)N2CCn3cncc3C2)CC1 (stereo not given)", "Plasmodium falciparum", "%", -22),
]

###

test system: Plasmodium falciparum; test: Primary screen in NF54 nanoGlo assay, in single point, at 2uM, 72h; type: functional, Erythrocyte; settings: timepoint 72 hour
About 540 (0.36%) of roughly 150,000 compounds showed an effect of 50% or more. Shown is part of a subset that was picked to be rich in strong results.
Measured Z score, listed per entry.

# CHEMICAL STRING, Z score
measured = [
    ("O=S1(=O)NC[C@H](O)CNC[C@@]2(COc3cc(-c4ccccc4)ccc31)C[C@@H](O)[C@@H](O)C2", 1.78),
    ("Cc1ccccc1Cc1c(C)[nH]c2[nH]n(-c3ccccc3)c(=O)c2c1=O", -1.18),
    ("CNCCc1c(-c2ccccc2)[nH]n(-c2ccccc2)c1=O", -6.33),
    ("Cc1cc(C(F)(F)F)n(C[C@@H](C)Cn2cc(-c3cncnc3)nn2)n1", 0.77),
    ("Cc1cccc(N(CCC#N)C(=O)c2cc3ccccc3c(=O)[nH]2)c1", 1.68),
    ("COc1cc(Br)c(NC(=O)N(C)CC(C)C)cc1OC", 1.89),
]

###

Known Z score of a selection of compounds
tested on: Plasmodium falciparum; test: Primary screen in NF54 nanoGlo assay, in single point, at 2uM, 72h; a lower Z score goes with more inhibition; format: functional, Erythrocyte; settings: timepoint 72 hour
Hit rate of the full screen: of about 150,000 compounds, about 540 (0.36%) showed an effect of 50% or more. Only a selection was taken, and strong results are over-represented in it overall.
MEASUREMENT NAME: Z score

# COMPOUND, RESULT
records = [
    ("O=C(COc1ccc(Br)cc1)Nc1ccc2c(c1)OCCCO2", 0.79),
    ("Cn1c(-c2ccccc2)cn2cc(-c3ccc(F)cc3)nc12", -0.19),
    ("Cn1c(-c2ccccc2)cn2cc(-c3ccc(Cl)cc3)nc12", -1.03),
    ("COc1ccc(-c2nc(C)cc(C)c2CNC(=O)c2ccco2)cc1", 0.33),
    ("CN1CCC(N2CCC(CN(Cc3ccncc3)C3CCOCC3)CC2)CC1", 0),
    ("CCn1ncnc1CNC1CC(c2ccc(Br)cc2)C1 (configuration not stated)", 1.96),
    ("CCCCn1c(NC(=O)c2ccccc2)c(S(=O)(=O)c2ccc(C)cc2)c2nc3ccccc3nc21", -0.03),
    ("O=C1CCCCN1CCC(=O)N1CCc2onc(-c3cccc4ccccc34)c2C1", 0.1),
    ("COc1ccc(CN(Cc2ccncc2)CC2CCN(C3CCN(C)CC3)CC2)c(F)c1", -10.13),
    ("COCCCn1c(NS(=O)(=O)c2ccc3ccccc3c2)c(S(=O)(=O)c2ccc(C)cc2)c2nc3ccccc3nc21", -8.33),
    ("COCCN1CCC(CN(Cc2ccncc2)Cc2cc(C)c(C)o2)CC1", 4.08),
    ("CCN1C[C@]2(CCCN(C(=O)c3ccccc3N3CCCC3)C2)CCC1=O", -1.03),
    ("C[C@]1(C(=O)Nc2cn[nH]c2)CCCN(C(=O)c2ccccc2)C1", 1.66),
    ("OCC1(CN2CCCC2)CCN(Cc2ccc(Cl)cc2)CC1", -0.36),
    ("CCc1nc(C)c(C(=O)N(C)Cc2csc(-c3ccccc3)n2)s1", 0.61),
    ("CCCCn1c(NC(=O)c2ccccc2Cl)c(S(=O)(=O)c2ccccc2)c2nc3ccccc3nc21", 0.7),
    ("Cn1c(-c2ccc(Br)cc2)cn2cc(-c3ccc(Cl)cc3)nc12", 0.7),
    ("Cc1nnc(C(C)NC(=O)C2(C)CCCN(C(=O)c3ccccc3)C2)o1 (configuration not stated)", 0.99),
    ("COc1ccc([C@@H]2N(c3ccc(Cl)cc3)OC(=O)N2c2ccccc2)cc1", -0.09),
    ("CN1CCN(S(=O)(=O)N2CCN(Cc3cccn3C)CC2)CC1", -0.7),
    ("CC(NS(=O)(=O)N(C)C(C)C)C1CCCO1 (configuration not stated)", 1.17),
    ("Cc1nc2cc(NC(=O)[C@@]3(C)CCCN(C(=O)c4ccccc4)C3)ccc2o1", -8.5),
]
